# maps each entry to its Measured Sweetness
assay: Trained sensory panel rating of sweetness and bitterness intensity, Example 2 (measured values, S/B); type: in vivo; conditions: 600 ppm, citric acid buffer; scale 1-15
Answer with a bare number; do not write a unit.

Below: 2 compounds and their reported Measured Sweetness.
{"compound": "C=C1C[C@@]23CC[C@H]4[C@@](C)(CCC[C@@]4(C)C(=O)O[C@@H]4O[C@H](CO)[C@@H](O)[C@H](O[C@@H]5O[C@H](CO)[C@@H](O)[C@H](O)[C@H]5O)[C@H]4O[C@@H]4O[C@@H](C)[C@H](O)[C@@H](O)[C@H]4O)[C@@H]2CC[C@]1(O[C@@H]1O[C@H](CO)[C@@H](O)[C@H](O[C@@H]2O[C@H](CO)[C@@H](O)[C@H](O)[C@H]2O)[C@H]1O[C@@H]1O[C@H](CO)[C@@H](O)[C@H](O)[C@H]1O)C3 [Reb N, Rebaudioside N]", "measure": "Measured Sweetness", "readout.value": 7.709}
{"compound": "C=C1C[C@@]23CC[C@H]4[C@@](C)(CCC[C@@]4(C)C(=O)O[C@@H]4O[C@H](CO)[C@@H](O)[C@H](O)[C@H]4O[C@@H]4O[C@H](CO)[C@@H](O)[C@H](O)[C@H]4O)[C@@H]2CC[C@]1(O[C@@H]1O[C@H](CO)[C@@H](O)[C@H](O[C@@H]2O[C@H](CO)[C@@H](O)[C@H](O)[C@H]2O)[C@H]1O[C@@H]1O[C@H](CO)[C@@H](O)[C@H](O)[C@H]1O)C3 [Reb D, Rebaudioside D]", "measure": "Measured Sweetness", "readout.value": 8.31}

Prompt: So what does the record say about Measured Sweetness for C=C1C[C@@]23CC[C@H]4[C@@](C)(CCC[C@@]4(C)C(=O)O[C@@H]4O[C@H](CO)[C@@H](O)[C@H](O)[C@H]4O)[C@@H]2CC[C@]1(O[C@@H]1O[C@H](CO)[C@@H](O)[C@H](O[C@@H]2O[C@H](CO)[C@@H](O)[C@H](O)[C@H]2O)[C@H]1O)C3 [Reb G, Rebaudioside G] ?
Completion: 1.98

###

assay: Trained sensory panel rating of sweetness and bitterness intensity, Example 2 (measured values, S/B); type: in vivo; conditions: 400 ppm; sweetness/bitterness ratio
measure: Measured S/B
Answer with a bare number; do not write a unit.

Below: 3 compounds and their reported Measured S/B.
{"compound": "C=C1C[C@@]23CC[C@H]4[C@@](C)(CCC[C@@]4(C)C(=O)O[C@@H]4O[C@H](CO)[C@@H](O)[C@H](O)[C@H]4O)[C@@H]2CC[C@]1(O[C@@H]1O[C@H](CO)[C@@H](O)[C@H](O[C@@H]2O[C@H](CO)[C@@H](O)[C@H](O)[C@H]2O)[C@H]1O)C3 [Reb G, Rebaudioside G]", "measure": "Measured S/B", "readout.value": 0.86}
{"compound": "C=C1C[C@@]23CC[C@H]4[C@@](C)(CCC[C@@]4(C)C(=O)O[C@@H]4O[C@H](CO)[C@@H](O)[C@H](O)[C@H]4O[C@@H]4O[C@H](CO)[C@@H](O)[C@H](O)[C@H]4O)[C@@H]2CC[C@]1(O[C@@H]1O[C@H](CO)[C@@H](O)[C@H](O)[C@H]1O[C@@H]1O[C@H](CO)[C@@H](O)[C@H](O)[C@H]1O)C3 [Reb E, Rebaudioside E]", "measure": "Measured S/B", "readout.value": 1.55}
{"compound": "C=C1C[C@@]23CC[C@H]4[C@@](C)(CCC[C@@]4(C)C(=O)O[C@@H]4O[C@H](CO)[C@@H](O)[C@H](O[C@@H]5O[C@H](CO)[C@@H](O)[C@H](O)[C@H]5O)[C@H]4O[C@@H]4O[C@@H](C)[C@H](O)[C@@H](O)[C@H]4O)[C@@H]2CC[C@]1(O[C@@H]1O[C@H](CO)[C@@H](O)[C@H](O[C@@H]2O[C@H](CO)[C@@H](O)[C@H](O)[C@H]2O)[C@H]1O[C@@H]1O[C@H](CO)[C@@H](O)[C@H](O)[C@H]1O)C3 [Reb N, Rebaudioside N]", "measure": "Measured S/B", "readout.value": 2.45}

Prompt: So what does the record say about Measured S/B for C=C1C[C@@]23CC[C@H]4[C@@](C)(CCC[C@@]4(C)C(=O)O[C@@H]4O[C@H](CO)[C@@H](O)[C@H](O)[C@H]4O[C@@H]4O[C@H](CO)[C@@H](O)[C@H](O)[C@H]4O)[C@@H]2CC[C@]1(O[C@@H]1O[C@H](CO)[C@@H](O)[C@H](O[C@@H]2O[C@H](CO)[C@@H](O)[C@H](O)[C@H]2O)[C@H]1O[C@@H]1O[C@H](CO)[C@@H](O)[C@H](O)[C@H]1O)C3 [Reb D, Rebaudioside D] ?
Completion: 2.05
